Entry source: patent US8536208B2

Assay: Single dose bioavailability study on fasted subjects
Conditions: human, in vivo, Galenical formulation Example 4 (composition 2.3), single oral dose 433.3 mg I-A (400 mg free base I-B), N=7, read-out: AUCinfinite
PARAMETER MEASURED: AUC (µg·h/mL)
Give the value, in units of µg·h/mL, as a plain number.

*Q* Name the recorded AUC for C[C@@H](c1nc(-c2ccc(C#N)cc2)cs1)[C@](O)(Cn1cncn1)c1cc(F)ccc1F.Cl [Compound I-A] .
*A* 193

---

Experiment: Single dose bioavailability study on fasted subjects
Settings: human, in vivo, 433.3 mg, Galenical formulation Example 4 (composition 2.3), single oral dose equal to 400 mg free base I-B, BAL 8557 as standard, read-out: Frel (relative bioavailability)
PARAMETER MEASURED: bioavailability
Please answer using a numeric value trailed by its unit.

*Q* Name the recorded bioavailability for `C[C@@H](c1nc(-c2ccc(C#N)cc2)cs1)[C@](O)(Cn1cncn1)c1cc(F)ccc1F.Cl` .
*A* 90%
